assayDetails: Caco-2 membrane permeability, improved method as used in the following Examples (96-well, 20 to 24 h preincubation)
Format: in vitro ADME
measurementSetup: human, Caco-2, Caco-2 (cm/sec)
Starred links: 1 amine or outer side, 2 acyl side, 3 side chain; linkers in the order of their positions; H or OH if unused. Positions of bridges follow the written chain, without caps; N, C: chain ends. Non-standard residues stand in square brackets, D forms with d. Residues, ends and D or L forms follow the SMILES beside them. *: point of attachment. X18 = CC(C(=O)[C@H](COC(C)(C)C)N[*:1])[C@@H](Cc1ccccc1)C(=O)[*:2]; Phe(4-CF3) = N[C@@H](Cc1ccc(C(F)(F)F)cc1)C(=O)O; NMeAla(4-thiazolyl) = CN[C@@H](Cc1cscn1)C(=O)O; NMePhe(3-Cl) = CN[C@@H](Cc1cccc(Cl)c1)C(=O)O; hhPhe = N[C@@H](CCCc1ccccc1)C(=O)O; NMeF = CN[C@@H](Cc1ccccc1)C(=O)O; 3Pal = N[C@@H](Cc1cccnc1)C(=O)O; NMeβAla = CN(CCC(=O)[*:2])[*:1]; NMeD = CN[C@@H](CC(=O)O)C(=O)O; NMeL = CN[C@@H](CC(C)C)C(=O)O; NMeV = CN[C@H](C(=O)O)C(C)C; NMeA = CN[C@@H](C)C(=O)O; Piperidide = C1CCN(*)CC1; Abu = CC[C@H](N)C(=O)O; Sar = CNCC(=O)O; tBu = CC(C)(C)*
Entries and their measured Papp A→B at 180 min follow.
// units = ×10⁻⁶ cm/s; emit number, no label

// Papp A→B at 180 min lookup, key: CC[C@H](C)[C@@H]1NC(=O)[C@H](Cc2ccccc2)N(C)C(=O)[C@H](C)N(C)C(=O)[C@H](CC(C)C)N(C)C(=O)[C@H](Cc2ccccc2)N(C)C(=O)CCN(C)C(=O)C[C@@H](C(=O)N(C)[C@@H](Cc2ccccc2)C(=O)N(C)[C@@H](Cc2ccccc2)C(=O)N[C@@H](C)C(=O)N2CCCCC2)NC(=O)[C@H]([C@@H](C)O)NC(=O)[C@H](CC(C)C)N(C)C(=O)[C@H](CC(C)C)N(C)C1=O [pd239] ([NMeβAla][NMeF][NMeL][NMeA][NMeF]I[NMeL][NMeL]TD[NMeF][NMeF]A-Piperidide; lactam N-10) 0.065

// Papp A→B at 180 min lookup, key: CC(C)C[C@@H]1NC(=O)[C@H](Cc2ccccc2)C(C)C(=O)[C@H](COC(C)(C)C)NC(=O)[C@H](Cc2ccccc2)N(C)C(=O)[C@H](C)N(C)C(=O)[C@H](CC(C)C)N(C)C(=O)[C@H]2CCCN2C(=O)C[C@@H](C(=O)N2CCCCC2)N(C)C(=O)[C@H](Cc2ccccc2)N(C)C(=O)[C@H]([C@@H](C)O)NC(=O)[C@H](C(C)C)N(C)C1=O (some centres unmarked) [pd219] ([dP][NMeL][NMeA][NMeF][X18]L[NMeV]T[NMeF][NMeD]-Piperidide; lactam N-10) 1.1

// Papp A→B at 180 min lookup, key: CC(C)C[C@@H]1NC(=O)[C@H](CC(C)C)N(C)C(=O)[C@H](C)N(C)C(=O)[C@H]([C@@H](C)O)NC(=O)[C@H](CC(C)C)N(C)C(=O)[C@H](COC(C)(C)C)NC(=O)[C@H](Cc2cccc(Cl)c2)N(C)C(=O)[C@H](CC(C)C)NC(=O)[C@H](C(C)C)N(C)C(=O)[C@@H](C(C)C)NC(=O)C[C@@H](C(=O)N2CCCCC2)NC1=O [pd171] ([dV][NMeV]L[NMePhe(3-Cl)]S(tBu)[NMeL]T[NMeA][NMeL]LD-Piperidide; lactam N-11) 1.2

// Papp A→B at 180 min lookup, key: CC(C)C[C@@H]1NC(=O)[C@H](Cc2ccccc2)N(C)C(=O)[C@H](C)N(C)C(=O)C[C@@H](C(=O)N2CCCCC2)NC(=O)[C@H](CC(C)C)N(C)C(=O)[C@H](Cc2ccccc2)N(C)C(=O)[C@H](Cc2ccccc2)NC(=O)[C@H](Cc2cscn2)N(C)C(=O)[C@H](C)N(C)C(=O)[C@H]([C@@H](C)O)NC(=O)[C@H](CC(C)C)N(C)C1=O [pd226] ([NMeA][NMeF]L[NMeL]T[NMeA][NMeAla(4-thiazolyl)]F[NMeF][NMeL]D-Piperidide; lactam N-11) 0.68

// Papp A→B at 180 min lookup, key: CC(C)C[C@@H]1NC(=O)[C@H](Cc2ccccc2)N(C)C(=O)[C@@H](C)NC(=O)C[C@@H](C(=O)N2CCCCC2)N(C)C(=O)[C@H](Cc2ccccc2)N(C)C(=O)[C@H](Cc2ccccc2)N(C)C(=O)[C@H](COC(C)(C)C)NC(=O)[C@H](CC(C)C)N(C)C(=O)CN(C)C(=O)[C@H]([C@@H](C)O)NC(=O)[C@H](CC(C)C)N(C)C1=O [pd224] ([dA][NMeF]L[NMeL]T[Sar][NMeL]S(tBu)[NMeF][NMeF][NMeD]-Piperidide; lactam N-11) 1

// Papp A→B at 180 min lookup, key: CC(C)C[C@H]1C(=O)N[C@@H](COC(C)(C)C)C(=O)N(C)[C@@H](Cc2ccccc2)C(=O)N(C)[C@@H](C)C(=O)N[C@H](C(=O)N2CCCCC2)CC(=O)N[C@H](C(C)C)C(=O)N(C)[C@@H](Cc2ccccc2)C(=O)N[C@@H](CCCc2ccccc2)C(=O)N(C)[C@@H](CC(C)C)C(=O)N[C@@H]([C@@H](C)O)C(=O)N(C)CC(=O)N1C [pd192] ([dV][NMeF][hhPhe][NMeL]T[Sar][NMeL]S(tBu)[NMeF][NMeA]D-Piperidide; lactam N-11) 1.1

Others:
// Papp A→B at 180 min lookup, key: CC[C@@H]1NC(=O)[C@H](C(C)C)N(C)C(=O)[C@@H](C(C)C)NC(=O)C[C@@H](C(=O)N2CCCCC2)NC(=O)[C@H](CC(C)C)N(C)C(=O)[C@H](Cc2cccc(Cl)c2)N(C)C(=O)[C@H](COC(C)(C)C)NC(=O)[C@H](CC(C)C)N(C)C(=O)CN(C)C(=O)[C@H](Cc2cccnc2)NC(=O)[C@H](CC(C)C)N(C)C1=O [pd164] ([dV][NMeV][Abu][NMeL][3Pal][Sar][NMeL]S(tBu)[NMePhe(3-Cl)][NMeL]D-Piperidide; lactam N-11) 1.6

// Papp A→B at 180 min lookup, key: CC(C)C[C@@H]1NC(=O)C[C@@H](C(=O)N2CCCCC2)NC(=O)[C@H](CC(C)C)N(C)C(=O)[C@H](CC(C)C)N(C)C(=O)[C@H](Cc2ccc(C(F)(F)F)cc2)NC(=O)[C@H](CC(C)C)N(C)C(=O)[C@H]([C@@H](C)O)NC(=O)[C@H](CC(C)C)N(C)C(=O)[C@H](C)N(C)C1=O [pd153] (L[NMeA][NMeL]T[NMeL][Phe(4-CF3)][NMeL][NMeL]D-Piperidide; lactam N-9) 1.4

---

assayDetails: Caco-2 membrane permeability, improved method as used in the following Examples (96-well, 20 to 24 h preincubation)
Type: in vitro ADME
measurementSetup: human, Caco-2, Caco-2
Starred links: 1 amine or outer side, 2 acyl side, 3 side chain; linkers in the order of their positions; H or OH if unused. Positions of bridges follow the written chain, without caps; N, C: chain ends. Non-standard residues stand in square brackets, D forms with d. Residues, ends and D or L forms follow the SMILES beside them. *: point of attachment. Glu(NHSO2Me) = CS(=O)(=O)NC(=O)CC[C@H](N)C(=O)O; X14 = O=C([C@H](CCc1ccccc1Cl)N[*:1])[*:2]; Gly(NCH2CH2Ph) = O=C(O)CNCCc1ccccc1; NMeF = CN[C@@H](Cc1ccccc1)C(=O)O; NMeGABA = CN(CCCC(=O)[*:2])[*:1]; NMeI = CC[C@H](C)[C@H](NC)C(=O)O; NMeL = CN[C@@H](CC(C)C)C(=O)O; dNMeL = CN[C@H](CC(C)C)C(=O)O; Propyl(2R-OH) = C[C@@H](O)C*; NMeV = CN[C@H](C(=O)O)C(C)C; NMeAbu = CC[C@H](NC)C(=O)O; NMeA = CN[C@@H](C)C(=O)O; Piperidide = C1CCN(*)CC1; Sar = CNCC(=O)O; tBu = CC(C)(C)*; CHF2 = FC(F)*
Please use 1 for Papp A→B at 180 min under 2 ×10⁻⁶ cm/s and -1 for everything else, ties included.

Example cases with answers are listed next.
Strictly below 2 ×10⁻⁶ cm/s in Papp A→B at 180 min? CC(C)C[C@H]1C(=O)N[C@@H](COC(C)(C)C)C(=O)N(C)[C@@H](Cc2ccccc2)C(=O)N(C)[C@@H](C(C)C)C(=O)N[C@H](C(=O)N2CCCCC2)CC(=O)N[C@H](C(C)C)C(=O)N(C)[C@@H](C)C(=O)N[C@@H](CCc2ccccc2Cl)C(=O)N(C)[C@@H](CC(C)C)C(=O)N[C@@H]([C@@H](C)O)C(=O)N(C)CC(=O)N1C [pd350] ([dV][NMeA][X14][NMeL]T[Sar][NMeL]S(tBu)[NMeF][NMeV]D-Piperidide; lactam N-11) 1

Strictly below 2 ×10⁻⁶ cm/s in Papp A→B at 180 min? CC(C)C[C@@H]1NC(=O)[C@H](CC(C)C)N(C)C(=O)CCCN(C)C(=O)C[C@@H](C(=O)N2CCCCC2)NC(=O)[C@H](CC(C)C)N(C)C(=O)[C@H](CC(C)C)N(C)C(=O)[C@H](CC(C)C)NC(=O)[C@H](CC(C)C)N(C)C(=O)[C@H](CCC(=O)NS(C)(=O)=O)NC(=O)[C@H](Cc2ccccc2)N(C)C(=O)[C@H](Cc2ccccc2)N(C)C1=O [pd68] ([NMeGABA][NMeL]L[NMeF][NMeF][Glu(NHSO2Me)][NMeL]L[NMeL][NMeL]D-Piperidide; lactam N-11) 1

Strictly below 2 ×10⁻⁶ cm/s in Papp A→B at 180 min? CC[C@H](C)[C@H]1C(=O)N[C@@H](C(C)C)C(=O)N(C)CC(=O)N(C)[C@@H](CC(C)C)C(=O)N[C@H](C(=O)N2CCCCC2)CC(=O)N(C)[C@@H](C)C(=O)N[C@@H](COC[C@@H](C)O)C(=O)N(C)[C@H](CC(C)C)C(=O)N(C)[C@@H](Cc2ccccc2)C(=O)N[C@@H](CC(C)C)C(=O)N(C)[C@@H](Cc2ccccc2)C(=O)N1C [pd495] ([NMeA]S(Propyl(2R-OH))[dNMeL][NMeF]L[NMeF][NMeI]V[Sar][NMeL]D-Piperidide; lactam N-11) -1

Strictly below 2 ×10⁻⁶ cm/s in Papp A→B at 180 min? CC[C@H](C)[C@H]1C(=O)N[C@@H]([C@@H](C)O)C(=O)N(C)CC(=O)N(C)[C@@H](CC(C)C)C(=O)N[C@@H](C(=O)N2CCCCC2)CC(=O)N(C)[C@@H](C)C(=O)N[C@@H](CC(C)C)C(=O)N(C)[C@@H](CC(C)C)C(=O)N(C)[C@@H](CC(C)C)C(=O)N[C@@H](Cc2ccc(OC(F)F)cc2)C(=O)N(C)[C@@H](C)C(=O)N1C [pd480] ([NMeA]L[NMeL][NMeL]Y(CHF2)[NMeA][NMeI]T[Sar][NMeL][dD]-Piperidide; lactam N-11) -1

Others:
Strictly below 2 ×10⁻⁶ cm/s in Papp A→B at 180 min? CC[C@H]1C(=O)N[C@@H]([C@@H](C)O)C(=O)N(C)CC(=O)N(C)[C@@H](Cc2ccccc2)C(=O)N(C)[C@@H](CC)C(=O)N[C@@H](COC(C)(C)C)C(=O)N(C)[C@@H](CC(C)C)C(=O)N[C@H](C(=O)N2CCCCC2)CC(=O)N(CCc2ccccc2)CC(=O)N(C)[C@@H](CC(C)C)C(=O)N[C@@H](CC(C)C)C(=O)N1C [pd412] ([Gly(NCH2CH2Ph)][NMeL]L[NMeAbu]T[Sar][NMeF][NMeAbu]S(tBu)[NMeL]D-Piperidide; lactam N-11) 1
